# System: SARS-CoV-2
# protocol: Yield-reduction assay, SARS-CoV-2 in Calu-3 cells (titers as PFU/mL in Vero cells)
# condition_info: Severe acute respiratory syndrome coronavirus 2, Calu-3
readout_kind: EC50

* CCC(CC)COC(=O)[C@H](C)N[P@](=O)(OC[C@H]1O[C@@](C#N)(c2ccc3c(N)ncnn23)[C@H](O)[C@@H]1O)Oc1ccccc1 [Remdesivir, remdesivir, reference compound] | 150 nM
* c1coc(CNc2ncnc3[nH]cnc23)c1 | 310 nM
* CC(C)C(=O)OC[C@H]1O[C@@H](n2ccc(NO)nc2=O)[C@H](O)[C@@H]1O [MK-4482, molnupiravir, reference compound] | 720 nM

Now examine the next entry.
For OC[C@H]1O[C@@H](n2cnc3c(NCc4ccco4)ncnc32)[C@H](O)[C@@H]1O [MB-801, Kinetin riboside] the compound record lists EC50 as 180 nM
